What target mRNA inhibition was measured for each of the following?
- TEST_SYSTEM: APOL1
- CONDITION_SET: ASO, A431, 1 µM
After the bases stand the sugars from the 5' end (letter, count) and the backbone: PS all phosphorothioate, else s phosphorothioate and o phosphodiester by linkage. Methylation of C is not given here. e = 2'-O-(2-methoxyethyl) (MOE); k = constrained ethyl (cEt); d = 2'-deoxy (DNA)
I only need the number, in %, no unit after it.

Please report the recorded target mRNA inhibition for ATTTCTTGATGTGGTG (sugars kdddddkekekddddd, PS) .
91

Please report the recorded target mRNA inhibition for CACCATAGCACGAAGC (sugars k4 d9 k3, PS) .
72

Please report the recorded target mRNA inhibition for GGTAAGAGCGATGGGA (sugars k3 d10 k3, PS) .
97

Please report the recorded target mRNA inhibition for ACGCAATGCTGACTTG (sugars kkddddekekeddddd, PS) .
80

----------
- TEST_SYSTEM: APOL1
- CONDITION_SET: ASO, A431, 2 µM
After the bases stand the sugars from the 5' end (letter, count) and the backbone: PS all phosphorothioate, else s phosphorothioate and o phosphodiester by linkage. Methylation of C is not given here. e = 2'-O-(2-methoxyethyl) (MOE); k = constrained ethyl (cEt); d = 2'-deoxy (DNA)
ENDPOINT: target mRNA inhibition (%)
I only need the number, in %, no unit after it.

Please report the recorded target mRNA inhibition for CTTTAAACTCAGGTGA (sugars kkdddddkekeddddd, PS) .
87

Please report the recorded target mRNA inhibition for AAGATTGGCTCTGGCT (sugars kkddddkekekkdddd, PS) .
2

Please report the recorded target mRNA inhibition for GTTATATTTGATCCTC (sugars k3 d4 k3 e1 d5, PS) .
98

Please report the recorded target mRNA inhibition for CATTCAGAATTTCCAC (sugars kkddddekekeddddd, PS) .
87

Please report the recorded target mRNA inhibition for CTGAAGATTGGCTCTG (sugars k2 d4 e3 k2 d5, PS) .
54

Please report the recorded target mRNA inhibition for GTGAGTATTGTTTTTG (sugars k2 d4 e3 k2 d5, PS) .
92

Please report the recorded target mRNA inhibition for ATCAGATGGGTACTTC (sugars kkkddddkdkdkdddd, PS) .
79

Please report the recorded target mRNA inhibition for CTTTATACCAGTGTCT (sugars kkddddekekeddddd, PS) .
98

Please report the recorded target mRNA inhibition for GAAGATTGGCTCTGGC (sugars kkddddekekeddddd, PS) .
64

Please report the recorded target mRNA inhibition for AGTATTGCCAGCTAAG (sugars kkddddkekekkdddd, PS) .
34

Please report the recorded target mRNA inhibition for GTATTTCTTGATGTGG (sugars kdddddkekekddddd, PS) .
92

Please report the recorded target mRNA inhibition for GTTATGAAATTATTGG (sugars kekddddeekkddddd, PS) .
90

Please report the recorded target mRNA inhibition for GCTTTAAACTCAGGTG (sugars kkkddddkekekdddd, PS) .
68

Please report the recorded target mRNA inhibition for GGCATTCAGAATTTCC (sugars k2 d4 e3 k2 d5, PS) .
97

Please report the recorded target mRNA inhibition for CATTCAGAATTTCCAC (sugars kkddddkekekkdddd, PS) .
57

Please report the recorded target mRNA inhibition for GAATTATGGAATTGCA (sugars k3 d4 k3 e1 d5, PS) .
90

Please report the recorded target mRNA inhibition for GAGTATTGTTTTTGTG (sugars kkddddkekekkdddd, PS) .
85

Please report the recorded target mRNA inhibition for AGTATTGCCAGCTAAG (sugars kkkddddkekekdddd, PS) .
66

Please report the recorded target mRNA inhibition for GAACGCAATGCTGACT (sugars kkddddekekeddddd, PS) .
95

Please report the recorded target mRNA inhibition for GGTTCAAAAGCAGCAT (sugars k2 d4 e3 k2 d5, PS) .
95

Please report the recorded target mRNA inhibition for GAAGATTGGCTCTGGC (sugars kkkddddkdkdkdddd, PS) .
51

Please report the recorded target mRNA inhibition for GCTAATTTTCTGACTG (sugars kkkddddkekekdddd, PS) .
88

Please report the recorded target mRNA inhibition for CGTCAATATATTCTTT (sugars kkkddddkekeddddd, PS) .
94

Please report the recorded target mRNA inhibition for ATTTCTTGATGTGGTG (sugars kdddddkekekddddd, PS) .
96

Please report the recorded target mRNA inhibition for AGCTTTAAACTCAGGT (sugars kkkddddkekekdddd, PS) .
64

Please report the recorded target mRNA inhibition for ATTCTATTAGAGGGCT (sugars kkddddkdkdkddddd, PS) .
74

Please report the recorded target mRNA inhibition for CTAATTTTCTGACTGT (sugars k2 d4 e4 k2 d4, PS) .
88

Please report the recorded target mRNA inhibition for AAGTATTGCCAGCTAA (sugars k3 d4 k3 e1 d5, PS) .
49

Please report the recorded target mRNA inhibition for GTTATATTTGATCCTC (sugars kkdddddkekeddddd, PS) .
97

Please report the recorded target mRNA inhibition for GTTATATTTGATCCTC (sugars kkkddddkekekdddd, PS) .
66

Please report the recorded target mRNA inhibition for ATCAGATGGGTACTTC (sugars kkddddekekeddddd, PS) .
73

Please report the recorded target mRNA inhibition for ACGCAATGCTGACTTG (sugars kekddddeekkddddd, PS) .
91

Please report the recorded target mRNA inhibition for CAGTTTTGTAAGTGCA (sugars kkkddddkekeddddd, PS) .
92

Please report the recorded target mRNA inhibition for GCTAATTTTCTGACTG (sugars kkdddddkekeddddd, PS) .
99

Please report the recorded target mRNA inhibition for GGCAGTTTTGTAAGTG (sugars kkddddekekeddddd, PS) .
75

Please report the recorded target mRNA inhibition for ATTCTCATGGTACAGG (sugars kddddkekekeddddd, PS) .
51

Please report the recorded target mRNA inhibition for GGGTTATGAAATTATT (sugars kkddddkekekddddd, PS) .
84
